EXPERIMENTAL SYSTEM: Calpain-1 catalytic subunit (Homo sapiens)
EXPERIMENTAL PROTOCOL: Inhibition of human erythrocyte full length Cal1 using (DABCYL)TPLK-SPPSPR-(EDANS) as substrate after 20 min by FRET assay
ASSAY ENDPOINT: pIC50
// pIC50: -log10(molar conc.)

Notebook: `CC(C)C[C@H](NC(=O)[C@H]1O[C@@H]1C(=O)O)C(=O)NCCCCNC(=O)CCCC[C@@H]1SC[C@@H]2NC(=O)N[C@@H]21` , pIC50 read as 7.00

Notebook: `CC(C)C[C@H](NC(=O)[C@H]1O[C@@H]1C(=O)O)C(=O)NCCCCNS(=O)(=O)c1ccc(F)cc1` , pIC50 read as 6.82

Notebook: CC(C)C[C@H](NC(=O)[C@H]1O[C@@H]1C(=O)O)C(=O)NCCCCN=C(N)N [E-64] , pIC50 read as 7.00

###

So I've got a bunch of compounds here, and I need their pKi values.
EXPERIMENTAL SYSTEM: Papain (Carica papaya)
Sequence (P00784 whole entry): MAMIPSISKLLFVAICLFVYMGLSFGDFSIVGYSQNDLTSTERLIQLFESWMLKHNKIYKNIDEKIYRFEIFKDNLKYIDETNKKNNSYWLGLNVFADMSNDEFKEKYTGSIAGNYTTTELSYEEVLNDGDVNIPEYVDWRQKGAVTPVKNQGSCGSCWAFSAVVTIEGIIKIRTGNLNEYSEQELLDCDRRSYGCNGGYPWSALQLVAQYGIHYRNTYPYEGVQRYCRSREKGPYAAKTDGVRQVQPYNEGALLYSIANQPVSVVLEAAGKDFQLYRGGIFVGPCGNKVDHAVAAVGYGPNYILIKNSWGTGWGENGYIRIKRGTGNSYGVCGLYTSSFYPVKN
// pKi: -log10(molar conc.)

Notebook: `O=C(Nc1nc(-c2ccc(F)cc2)cs1)[C@H](Cc1cscn1)NC(=O)[C@H]1O[C@@H]1C(=O)O` , pKi read as 5.27

Notebook: `CC(C)C[C@H](NC(=O)[C@H]1O[C@@H]1C(=O)O)C(=O)NCCCCN=C(N)N` , pKi read as 5.29

Notebook: `CC(C)C[C@H](NC(=O)[C@H]1O[C@@H]1C(=O)O)C(=O)Nc1nc(-c2ccc(F)cc2)cs1` , pKi read as 5.79

###

EXPERIMENTAL SYSTEM: Calpain-1 catalytic subunit (Homo sapiens, UniProt P07384)
Sequence (P07384 whole entry): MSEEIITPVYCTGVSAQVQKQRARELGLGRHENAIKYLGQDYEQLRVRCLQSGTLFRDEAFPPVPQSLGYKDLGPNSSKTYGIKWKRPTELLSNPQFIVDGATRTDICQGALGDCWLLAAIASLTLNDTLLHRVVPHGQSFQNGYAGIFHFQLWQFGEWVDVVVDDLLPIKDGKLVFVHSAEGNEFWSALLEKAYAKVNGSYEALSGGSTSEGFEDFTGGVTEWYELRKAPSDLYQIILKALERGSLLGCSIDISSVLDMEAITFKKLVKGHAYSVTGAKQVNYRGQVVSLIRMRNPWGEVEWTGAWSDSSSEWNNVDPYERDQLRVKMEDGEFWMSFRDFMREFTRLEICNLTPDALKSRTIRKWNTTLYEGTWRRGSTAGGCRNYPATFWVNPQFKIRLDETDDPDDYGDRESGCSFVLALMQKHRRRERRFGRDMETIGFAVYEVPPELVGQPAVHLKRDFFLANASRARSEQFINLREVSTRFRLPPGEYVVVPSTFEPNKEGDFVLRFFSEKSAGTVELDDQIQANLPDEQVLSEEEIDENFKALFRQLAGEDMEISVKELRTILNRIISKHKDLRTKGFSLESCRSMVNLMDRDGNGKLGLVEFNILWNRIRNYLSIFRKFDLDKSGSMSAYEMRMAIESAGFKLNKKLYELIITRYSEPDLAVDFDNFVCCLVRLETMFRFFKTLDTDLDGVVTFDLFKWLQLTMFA
EXPERIMENTAL PROTOCOL: Inhibition of human erythrocyte full length Cal1 using (DABCYL)TPLK-SPPSPR-(EDANS) as substrate after 20 min by FRET assay
So I've got a bunch of molecules here, and I need their pIC50 values.
// pIC50: -log10(molar conc.)

Notebook: `O=C(Nc1nc(-c2ccc(F)cc2)cs1)[C@H](Cc1cscn1)NC(=O)[C@H]1O[C@@H]1C(=O)O` , pIC50 read as 7.00

Notebook: CC(C)C[C@H](NC(=O)[C@H]1O[C@@H]1C(=O)O)C(=O)NCCCCNC(=O)CCCCC1CCSS1 (some centres undefined) , pIC50 read as 7.00

Origin of measurements: ChEMBL document CHEMBL2407090
